target: full-length human CRM1 (wild type) (human, UniProt O14980 1-1071); assay: differential photobleaching
Sequence (O14980 whole entry): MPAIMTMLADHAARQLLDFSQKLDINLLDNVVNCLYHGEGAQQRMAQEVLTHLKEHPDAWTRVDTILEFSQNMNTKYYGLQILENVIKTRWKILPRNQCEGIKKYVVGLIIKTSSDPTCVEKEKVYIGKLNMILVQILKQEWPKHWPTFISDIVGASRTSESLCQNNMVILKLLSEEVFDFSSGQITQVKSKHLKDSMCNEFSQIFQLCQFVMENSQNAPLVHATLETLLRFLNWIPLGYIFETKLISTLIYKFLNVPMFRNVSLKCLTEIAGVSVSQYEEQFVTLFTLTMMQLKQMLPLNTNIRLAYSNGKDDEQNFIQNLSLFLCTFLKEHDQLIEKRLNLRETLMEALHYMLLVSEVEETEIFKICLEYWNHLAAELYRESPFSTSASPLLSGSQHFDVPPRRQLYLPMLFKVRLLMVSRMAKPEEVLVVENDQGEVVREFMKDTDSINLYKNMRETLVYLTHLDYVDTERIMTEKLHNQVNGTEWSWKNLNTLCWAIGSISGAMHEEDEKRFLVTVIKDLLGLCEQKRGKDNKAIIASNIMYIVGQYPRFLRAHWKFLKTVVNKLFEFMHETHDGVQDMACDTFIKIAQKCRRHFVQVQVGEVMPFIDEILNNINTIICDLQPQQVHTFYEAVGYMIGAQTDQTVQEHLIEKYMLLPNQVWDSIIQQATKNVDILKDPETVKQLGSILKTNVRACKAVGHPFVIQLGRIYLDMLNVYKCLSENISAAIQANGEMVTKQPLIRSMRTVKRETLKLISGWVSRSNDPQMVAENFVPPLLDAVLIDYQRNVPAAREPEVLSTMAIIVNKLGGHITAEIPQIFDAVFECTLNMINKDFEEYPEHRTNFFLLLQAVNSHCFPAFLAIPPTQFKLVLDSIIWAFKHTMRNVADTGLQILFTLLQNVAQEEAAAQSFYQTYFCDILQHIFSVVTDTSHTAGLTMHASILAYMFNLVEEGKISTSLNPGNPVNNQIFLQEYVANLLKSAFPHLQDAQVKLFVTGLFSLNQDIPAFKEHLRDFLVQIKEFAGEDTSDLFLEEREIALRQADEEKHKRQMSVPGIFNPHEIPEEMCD
No end group written: not given here. MBP = not defined here
Provide the reported Kd of each item.
One number for each entry, in µM.

These solved cases illustrate the format of a correct answer.
{MBP}-EQMVKELQEIRLEPQ (reading uncertain) [MBP-Iκβα^NES] = 22
REELWKKLEELKLKK [MBP-PP2A B56α^NES] = 4.4
SVEEVEAGLKGLKVDQQVK [MBP-eIF4E-transporter NES (4E-T^NES)] = 1.4

Could you now look at the following binder, please?
Need Kd of {MBP}-SLVLLPFDDLKISG (reading uncertain) [MBP-Iκβε^NES] , thanks. 3.6

All values here come from paper PMC7525811.
